The origin of these recorded values is the NIST ThermoML archive (doi:10.1021/acs.jced.7b00221).

Method notes: xn = mol fraction of the nth substance listed
Study conditions: 308.15 K; 100 kPa; Liquid; Cone and plate viscometry; x1 = 0.3
Reported property: viscosity (mPa·s)
Expressed in mPa·s, but write only the number.

Reference set, count: 2
{"Compound": "CCCCCCCCCCCCCC[P+](CCCCCC)(CCCCCC)CCCCCC.N#Cc1ccc[n-]1 [trihexyl(tetradecyl)phosphonium 2-cyanopyrrolide] + CCCCCC[n+]1ccn(C)c1.O=S(=O)([N-]S(=O)(=O)C(F)(F)F)C(F)(F)F", "Units of measure": "mPa·s", "viscosity": 100}
{"Compound": "CCCCCCCCCCCCCC[P+](CCCCCC)(CCCCCC)CCCCCC.O=[N+]([O-])c1cn[n-]c1 [trihexyl(tetradecyl)phosphonium 4-nitropyrazolide] + CCCCCC[n+]1ccn(C)c1.O=S(=O)([N-]S(=O)(=O)C(F)(F)F)C(F)(F)F", "Units of measure": "mPa·s", "viscosity": 122}

Briefly, viscosity measured for CCCCCCn1cc[n+](C)c1.N#Cc1ccc[n-]1 [1-hexyl-3-methylimidazolium 2-cyanopyrrolide] + CCCCCCCCCCCCCC[P+](CCCCCC)(CCCCCC)CCCCCC.O=S(=O)([N-]S(=O)(=O)C(F)(F)F)C(F)(F)F : 176

For CCCCCCCCCCCCCC[P+](CCCCCC)(CCCCCC)CCCCCC.N#Cc1ccc[n-]1 [trihexyl(tetradecyl)phosphonium 2-cyanopyrrolide] + CCCCCCn1cc[n+](C)c1C.O=S(=O)([N-]S(=O)(=O)C(F)(F)F)C(F)(F)F the compound record lists viscosity as 136

viscosity reading for CC(=O)[O-].CCCCCCCCCCCCCC[P+](CCCCCC)(CCCCCC)CCCCCC [trihexyl(tetradecyl)phosphonium acetate] + CCCCCC[n+]1ccn(C)c1.O=S(=O)([N-]S(=O)(=O)C(F)(F)F)C(F)(F)F : 136
